target_entity: recombinant human secreted phospholipase A2 (Homo sapiens)
Sequence (P14555 21-144): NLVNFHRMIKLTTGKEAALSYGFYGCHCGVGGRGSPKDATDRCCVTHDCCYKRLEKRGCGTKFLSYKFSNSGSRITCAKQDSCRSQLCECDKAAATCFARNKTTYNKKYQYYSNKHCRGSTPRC
protocol: chromogenic assay of sPLA2 inhibition (diheptanoyl thio-PC / DTNB, 96 well microtiter plates)
Assay type: biochemical
condition_summary: absorbance at 405 nanometers, 40° C. for 30 minutes, pH 7.5, titrated in triplicate and averaged
Sorting guide: entries reporting IC50 beneath 0.1 µM go in the YES pile, the rest go in the NO pile.

COC(=O)COc1cc2c(c3c1c(C(=O)C(N)=O)c(C)n3Cc1ccccc1-c1ccc(Br)s1)CCC2 [Example 20]	NO
COC(=O)COc1cc2c(c3c1c(C(=O)C(N)=O)c(C)n3Cc1ccccc1)CCCC2 [Example 14]	NO
Cc1c(C(=O)C(N)=O)c2c(OCC(=O)O)cc3c(c2n1Cc1ccccc1)CCCC3 [Example 15]	YES
Cc1c(C(=O)C(N)=O)c2c(OCC(=O)O)cc3c(c2n1Cc1cccc(F)c1)CCC3 [Example 7, hydrate]	YES
COC(=O)COc1cc2c(c3c1c(C(=O)C(N)=O)c(C)n3Cc1ccccc1F)CCC2 [Example 8]	YES
CCc1c(C(=O)C(N)=O)c2c(OCC(=O)O)cc3c(c2n1Cc1ccccc1)CCC3 [Example 2]	YES

Could you now consider this next compound?
Task item: I'd appreciate it if you could check whether COC(=O)COc1cc2c(c3c1c(C(=O)C(N)=O)c(C)n3Cc1ccccc1-c1ccccc1)CCC2 [Example 18] has IC50 smaller than 0.1 µM.
Reply: NO
